Data origin, for the record: paper PMC12040169

# test-summary: in vitro
# assay-conditions: human, hela cells, % viability
measurement-label: viability at 28.5 h, 10 µM
Please format your answer as a value with the unit trailing.

// worked examples, viability at 28.5 h, 10 µM included
# molecule, viability at 28.5 h, 10 µM
records = [
    ("NC(=O)c1cc(C(=O)c2ccccc2F)c[nH]1", "112%"),
    ("Cc1ccc(S(=O)(=O)N2CCN(CC(O)COc3ccc4ccccc4c3Cl)CC2)c(C)c1 (stereo not shown)", "83%"),
    ("Nc1ccc(-c2cccc(C(F)(F)F)c2)c2ccccc12", "80%"),
    ("CCCC/C=C/c1cnc2[nH]c(=O)n(Cc3cccs3)c2n1", "83.6%"),
    ("CCCCCC(=O)Nc1ccc(S(=O)(=O)Nc2nnc(CC)s2)cc1", "89%"),
]

Request the reported viability at 28.5 h, 10 µM associated with O=C(CCn1c(C(F)F)cc2cccnc21)N1CCCCCC1
96.9%

Request the reported viability at 28.5 h, 10 µM associated with Brc1ccc(C2(c3nnc(C4CC4)o3)CCOCC2)cc1
98.2%

Request the reported viability at 28.5 h, 10 µM associated with Nc1ncc(-c2cccc(/C=C/C(=O)O)c2)nc1NCCCO
103%

Request the reported viability at 28.5 h, 10 µM associated with COc1cc(CNc2nnn[nH]2)cc(Br)c1OCc1ccc(Cl)cc1
87.2%
